All figures here come from PubChem BioAssay (NCI).

Test system: 786-0 renal
experimentalProtocol: NCI-60 one-dose screen, 48 h (100 = growth as untreated, 0 = no growth, -100 = all killed)
recordedConditions: 10 µM unless noted
Experimental: Cells are grown in 96 well plates and exposed to the test compound for 48 hours. Compounds are tested at a single concentration, which is 10^-5 M for most compounds. The reported endpoint is percent growth (GI% or GIPRCNT), where numbers from 0 - 100% represent growth inhibition, and numbers from -100% - 0 represent cell death. For example, a value of 40 represents 60% growth inhibition. A value of 0 means no net growth occurred over the course of the experiment. […]
The panel holds about 83,000 compounds, 20% with a hit somewhere; the sample as a whole holds those more often.
// class assignment uses growth with these ranges: LOW (below 30%), MEDIUM (30% to below 90%), HIGH (90% or more)

Past entries and their recorded results:
compound	group
O=C1OCC2=C1C(c1cccc(C(F)(F)F)c1)c1cc3c(cc1N2CCO)CCC3 (stereo unspecified)	LOW
O=C(c1ccc(Nc2nccc(NCCCNc3ccnc4cc(Cl)ccc34)n2)cc1)N1CCCCC1	MEDIUM
COc1cc(Nc2nc3ccccc3cc2C(=O)Nc2ccc(F)c(F)c2)cc(OC)c1OC	MEDIUM
COc1cc(/C=C/C(=O)c2ccc(NC(=O)CSc3nnc(-c4cc(-c5ccccc5)nc5ccccc45)n3-c3ccccc3)cc2)cc(OC)c1OC	HIGH
COc1ccc(/C=N\Nc2nc(SCC(C)C)nc(-c3ccc(OC)cc3)c2C#N)cc1	LOW

Qu. Which of the defined bands does the recorded growth of CC[C@@H]1NC(=O)[C@H]([C@H](O)[C@H](C)C/C=C/c2ccc(CN3C(=O)C(C)=C(C)C3=O)cc2)N(C)C(=O)[C@H](C(C)C)N(C)C(=O)[C@H](CC(C)C)N(C)C(=O)[C@H](CC(C)C)N(C)C(=O)[C@@H](C)NC(=O)[C@H](C)NC(=O)[C@H](CC(C)C)N(C)C(=O)[C@H](C(C)C)NC(=O)[C@H](CC(C)C)N(C)C(=O)CN(C)C1=O sit within?
Ans. HIGH

Qu. Which of the defined bands does the recorded growth of CCC(=C(c1ccc(OCCCN(C)C)cc1)c1ccc(OCCCN(C)C)cc1)c1ccc(Cl)cc1 sit within?
Ans. LOW

Qu. Which of the defined bands does the recorded growth of CC1(C)C(N)=Nc2cc(OCCCCN3Cc4ccccc4C3)c(OCC3CC3)cc21 sit within?
Ans. MEDIUM

###

System: SK-MEL-5 melanoma
experimentalProtocol: NCI-60 one-dose screen, 48 h
recordedConditions: 10 µM unless noted
About 83,000 compounds went through this panel and 20% of them were active in at least one assay; those are over-represented in the sample as a whole. The source made the active and inactive calls. Rule for the calls: active = growth percent below 10; inactive = the rest.
# valid calls are active, inactive; nothing else

Past entries and their recorded results:
compound	experimentalTarget	group
Nc1nc(Nc2ccc(F)cc2)nn1C(=O)c1cc(Cl)ccc1Cl	SK-MEL-5 melanoma	inactive
Cc1ccc2c(c1)C(C)Cc1c(ncnc1-n1cnc3cc(C)ccc31)N2C (centres undefined)	SK-MEL-5 melanoma	active
N#CC1=C(N)Oc2c(sc3c(Br)cccc23)C1c1ccccn1 (centres undefined)	SK-MEL-5 melanoma	inactive

Qu. Called result for OB(O)c1ccsc1-c1nc2ccc3[nH]ncc3c2c2c1CCCC2
Ans. inactive

Qu. Called result for CCCCC1COc2cccc3c2N1C=C/C3=C\C(=O)N(C)c1cccc(Cl)c1 (centres undefined)
Ans. inactive

Qu. Called result for COc1ccc(-c2nnc3n(C)c(=O)c4ccccc4n23)cc1O
Ans. inactive

Qu. Called result for CCN1CCN(C(=O)[C@]23CC[C@@H](C)[C@H](C)[C@@H]2C2=CC[C@@H]4[C@@]5(C)CCC(=O)C(C)(C)[C@@H]5CC[C@@]4(C)[C@]2(C)CC3)CC1
Ans. active

Qu. Called result for C=C[C@]1(C)C=C2CC[C@@H]3C(C)(C)C(=O)CC[C@@]3(C)[C@@H]2CC1
Ans. inactive

Qu. Called result for COc1ccc(/C(C)=C(\c2ccc(OCCN3CCCCCC3)cc2)c2ccc(OC(=O)C3CCCCC3)cc2)cc1
Ans. active
